# ASSAY_SYSTEM: Chromobox protein homolog 7 (Homo sapiens, UniProt O95931)
# Sequence (O95931 whole entry): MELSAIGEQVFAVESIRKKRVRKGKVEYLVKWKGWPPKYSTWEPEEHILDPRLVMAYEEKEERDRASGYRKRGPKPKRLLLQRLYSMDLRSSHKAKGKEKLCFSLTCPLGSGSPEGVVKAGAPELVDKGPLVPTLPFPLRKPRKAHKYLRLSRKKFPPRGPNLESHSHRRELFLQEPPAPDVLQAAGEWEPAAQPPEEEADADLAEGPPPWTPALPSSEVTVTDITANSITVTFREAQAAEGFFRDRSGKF
pIC50: −log10 of the molar value. Non-standard residues stand in square brackets, D forms with d. Residues, ends and D or L forms follow the SMILES beside them. *: point of attachment. Lys(Me3) = C[N+](C)(C)CCCC[C@H](N)C(=O)O; Benzoyl(4-Br) = O=C(c1ccc(Br)cc1)*; Gly(cPent) = N[C@H](C(=O)O)C1CCCC1; Abu = CC[C@H](N)C(=O)O
PARAMETER: pIC50

>  <MOLECULE>
C[C@H](NC(=O)[C@H](Cc1ccccc1)NC(=O)c1ccc(Br)cc1)C(=O)N[C@@H](Cc1ccc(O)cc1)C(=O)N[C@@H](CCCC[N+](C)(C)C)C(=O)N[C@@H](CO)C(N)=O ({Benzoyl(4-Br)}-FAY[Lys(Me3)]S-NH2)

>  <ASSAY_SYSTEM>
Chromobox protein homolog 7 (Homo sapiens, UniProt O95931)

>  <pIC50>
5.64

$$$$

I: C[C@H](NC(=O)[C@H](Cc1ccccc1)NC(=O)c1ccc(Br)cc1)C(=O)N[C@@H](Cc1ccc(O)cc1)C(=O)N[C@@H](CCCC[N+](C)(C)C)C(=O)N[C@@H](CO)C(=O)N[C@@H](CCC(=O)O)C(N)=O ({Benzoyl(4-Br)}-FAY[Lys(Me3)]SE-NH2)
II: CC(C)C[C@H](NC(=O)[C@H](CO)NC(=O)[C@H](CCCC[N+](C)(C)C)NC(=O)[C@H](Cc1ccc(O)cc1)NC(=O)[C@H](C)NC(=O)[C@H](Cc1ccccc1)NC(=O)c1ccc(Br)cc1)C(N)=O ({Benzoyl(4-Br)}-FAY[Lys(Me3)]SL-NH2)
III: CC[C@H](NC(=O)[C@H](Cc1ccccc1)NC(=O)c1ccc(Br)cc1)C(=O)N[C@H](C(=O)N[C@@H](CCCC[N+](C)(C)C)C(=O)N[C@@H](CO)C(=O)N[C@@H](CCC(=O)O)C(N)=O)C1CCCC1 ({Benzoyl(4-Br)}-F[Abu][Gly(cPent)][Lys(Me3)]SE-NH2)
Returns the items ordered by pIC50, from maximum to minimum. Returns: the labels listed in the requested order.
II, I, III

----------
Here, each record is paired with measured pKd data.
# ASSAY_SYSTEM: Chromobox protein homolog 6 (Homo sapiens, UniProt O95503)
# Sequence (O95503 whole entry): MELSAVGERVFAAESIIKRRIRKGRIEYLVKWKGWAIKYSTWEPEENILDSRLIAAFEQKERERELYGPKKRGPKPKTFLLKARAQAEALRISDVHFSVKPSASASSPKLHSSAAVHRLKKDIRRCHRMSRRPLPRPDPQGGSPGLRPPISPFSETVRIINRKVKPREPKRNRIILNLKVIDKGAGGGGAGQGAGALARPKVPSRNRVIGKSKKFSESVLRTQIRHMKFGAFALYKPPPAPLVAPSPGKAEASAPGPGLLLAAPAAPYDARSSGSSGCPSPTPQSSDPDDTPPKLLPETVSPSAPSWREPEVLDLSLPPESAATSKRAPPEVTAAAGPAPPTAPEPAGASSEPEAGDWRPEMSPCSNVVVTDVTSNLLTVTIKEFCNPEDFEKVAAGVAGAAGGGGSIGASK
Non-standard residues stand in square brackets, D forms with d. Residues, ends and D or L forms follow the SMILES beside them. *: point of attachment. X1 = O=C(O)c1cc(NC(=S)*)ccc1-c1c2ccc(=O)cc-2oc2cc(O)ccc12; Lys(Me3) = C[N+](C)(C)CCCC[C@H](N)C(=O)O; Benzoyl(4-Br) = O=C(c1ccc(Br)cc1)*; Gly(cPent) = N[C@H](C(=O)O)C1CCCC1; Abu = CC[C@H](N)C(=O)O; βAla = NCCC(=O)O
By convention, pKd is the negative base-10 log of a molar concentration.

Answered cases to consult:
>  <COMPOUND>
CC[C@H](NC(=O)[C@H](Cc1ccccc1)NC(=O)c1ccc(Br)cc1)C(=O)N[C@H](C(=O)N[C@@H](CCCC[N+](C)(C)C)C(=O)N[C@@H](CO)C(=O)N[C@@H](CCC(=O)O)C(=O)N[C@@H](CCCCNC(=S)Nc1ccc(-c2c3ccc(=O)cc-3oc3cc(O)ccc23)c(C(=O)O)c1)C(N)=O)C1CCCC1 ({Benzoyl(4-Br)}-F[Abu][Gly(cPent)][Lys(Me3)]SEK(X1)-NH2)

>  <VALUE_OBSERVED>
6.46

$$$$
>  <COMPOUND>
CC[C@H](NC(=O)[C@H](Cc1ccccc1)NC(=O)[C@H](Cc1ccccc1)NC(C)=O)C(=O)N[C@H](C(=O)N[C@@H](CCCC[N+](C)(C)C)C(=O)N[C@@H](CO)C(=O)N[C@@H](CCC(=O)O)C(=O)N[C@@H](CCCCNC(=S)Nc1ccc(-c2c3ccc(=O)cc-3oc3cc(O)ccc23)c(C(=O)O)c1)C(N)=O)C1CCCC1 (Ac-FF[Abu][Gly(cPent)][Lys(Me3)]SEK(X1)-NH2)

>  <VALUE_OBSERVED>
6.40

$$$$

GET pKd where system = Chromobox protein homolog 6 (Homo sapiens, UniProt O95503) and item = CC[C@H](NC(=O)[C@H](Cc1ccccc1)NC(=O)c1ccc(Br)cc1)C(=O)N[C@@H](Cc1ccccc1)C(=O)N[C@@H](CCCC[N+](C)(C)C)C(=O)N[C@@H](CO)C(=O)N[C@@H](CCC(=O)O)C(=O)N[C@@H](CCCCNC(=S)Nc1ccc(-c2c3ccc(=O)cc-3oc3cc(O)ccc23)c(C(=O)O)c1)C(N)=O ({Benzoyl(4-Br)}-F[Abu]F[Lys(Me3)]SEK(X1)-NH2)
6.10

Report pKd under test system Chromobox protein homolog 6 (Homo sapiens, UniProt O95503) for CC(=O)N[C@@H](Cc1ccccc1)C(=O)N[C@@H](Cc1ccccc1)C(=O)N[C@@H](C)C(=O)N[C@@H](CC(C)C)C(=O)N[C@@H](CCCC[N+](C)(C)C)C(=O)N[C@@H](CO)C(=O)N[C@@H](CCC(=O)O)C(=O)N[C@@H](CCCCNC(=S)Nc1ccc(-c2c3ccc(=O)cc-3oc3cc(O)ccc23)c(C(=O)O)c1)C(N)=O (Ac-FFAL[Lys(Me3)]SEK(X1)-NH2) .
6.00

Provide measured pKd on Chromobox protein homolog 6 (Homo sapiens, UniProt O95503) for CC(C)C[C@H](NC(=O)[C@H](C)NC(=O)[C@H](Cc1ccccc1)NC(=O)CCNC(=S)Nc1ccc(-c2c3ccc(=O)cc-3oc3cc(O)ccc23)c(C(=O)O)c1)C(=O)N[C@@H](CCCC[N+](C)(C)C)C(=O)N[C@@H](CO)C(N)=O ({X1-βAla}-FAL[Lys(Me3)]S-NH2) please.
6.05

Quote Chromobox protein homolog 6 (Homo sapiens, UniProt O95503) pKd for entry CC(C)C[C@H](NC(=O)[C@H](C)NC(=O)[C@H](Cc1ccccc1)NC(=O)[C@H](Cc1ccccc1)NC(=O)CCNC(=S)Nc1ccc(-c2c3ccc(=O)cc-3oc3cc(O)ccc23)c(C(=O)O)c1)C(=O)N[C@@H](CCCC[N+](C)(C)C)C(=O)N[C@@H](CO)C(N)=O ({X1-βAla}-FFAL[Lys(Me3)]S-NH2) .
5.96

Tell me its pKd on Chromobox protein homolog 6 (Homo sapiens, UniProt O95503): CC(C)C[C@H](NC(=O)[C@H](CO)NC(=O)[C@H](CCCC[N+](C)(C)C)NC(=O)[C@H](Cc1ccc(O)cc1)NC(=O)[C@H](C)NC(=O)[C@H](Cc1ccccc1)NC(=O)c1ccc(Br)cc1)C(=O)N[C@@H](CCCCNC(=S)Nc1ccc(-c2c3ccc(=O)cc-3oc3cc(O)ccc23)c(C(=O)O)c1)C(N)=O ({Benzoyl(4-Br)}-FAY[Lys(Me3)]SLK(X1)-NH2)
7.11

# assay system Chromobox protein homolog 6 (Homo sapiens, UniProt O95503): give pKd of C[C@H](NC(=O)[C@H](Cc1ccccc1)NC(=O)c1ccc(Br)cc1)C(=O)N[C@@H](Cc1ccc(O)cc1)C(=O)N[C@@H](CCCC[N+](C)(C)C)C(=O)N[C@@H](CO)C(=O)N[C@@H](CCC(=O)O)C(=O)N[C@@H](CCCCNC(=S)Nc1ccc(-c2c3ccc(=O)cc-3oc3cc(O)ccc23)c(C(=O)O)c1)C(N)=O ({Benzoyl(4-Br)}-FAY[Lys(Me3)]SEK(X1)-NH2)
7.33

----------
Consider the following compounds and their measured Kd readings.
# ASSAY_SYSTEM: UniProtKB Q9HC52
# Sequence (Q9HC52 whole entry): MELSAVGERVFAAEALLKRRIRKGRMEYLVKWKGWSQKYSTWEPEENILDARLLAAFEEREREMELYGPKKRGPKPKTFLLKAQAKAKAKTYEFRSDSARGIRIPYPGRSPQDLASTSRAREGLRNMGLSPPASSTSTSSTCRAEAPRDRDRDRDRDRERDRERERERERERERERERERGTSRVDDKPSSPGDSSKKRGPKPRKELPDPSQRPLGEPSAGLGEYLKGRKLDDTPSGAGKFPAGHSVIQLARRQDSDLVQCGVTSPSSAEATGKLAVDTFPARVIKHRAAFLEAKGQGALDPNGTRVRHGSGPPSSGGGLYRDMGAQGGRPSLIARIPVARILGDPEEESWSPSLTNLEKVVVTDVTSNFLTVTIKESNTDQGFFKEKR
Non-standard residues stand in square brackets, D forms with d. Residues, ends and D or L forms follow the SMILES beside them. *: point of attachment. X1 = O=C(O)c1cc(NC(=S)*)ccc1-c1c2ccc(=O)cc-2oc2cc(O)ccc12; Lys(Me3) = C[N+](C)(C)CCCC[C@H](N)C(=O)O; Benzoyl(4-Br) = O=C(c1ccc(Br)cc1)*; Gly(cPent) = N[C@H](C(=O)O)C1CCCC1; Abu = CC[C@H](N)C(=O)O; βAla = NCCC(=O)O
Number only, in µM; omit the unit.

Guide cases for Kd, answers given:
>  <COMPOUND>
CC[C@H](NC(=O)[C@H](Cc1ccccc1)NC(=O)[C@H](Cc1ccccc1)NC(C)=O)C(=O)N[C@H](C(=O)N[C@@H](CCCC[N+](C)(C)C)C(=O)N[C@@H](CO)C(=O)N[C@@H](CCC(=O)O)C(=O)N[C@@H](CCCCNC(=S)Nc1ccc(-c2c3ccc(=O)cc-3oc3cc(O)ccc23)c(C(=O)O)c1)C(N)=O)C1CCCC1 (Ac-FF[Abu][Gly(cPent)][Lys(Me3)]SEK(X1)-NH2)

>  <Kd (µM)>
0.7

$$$$
>  <COMPOUND>
CC(=O)N[C@@H](Cc1ccccc1)C(=O)N[C@@H](Cc1ccccc1)C(=O)N[C@@H](C)C(=O)N[C@@H](CC(C)C)C(=O)N[C@@H](CCCC[N+](C)(C)C)C(=O)N[C@@H](CO)C(=O)N[C@@H](CCC(=O)O)C(=O)N[C@@H](CCCCNC(=S)Nc1ccc(-c2c3ccc(=O)cc-3oc3cc(O)ccc23)c(C(=O)O)c1)C(N)=O (Ac-FFAL[Lys(Me3)]SEK(X1)-NH2)

>  <Kd (µM)>
2.6

$$$$
>  <COMPOUND>
CC(C)C[C@H](NC(=O)[C@H](C)NC(=O)[C@H](Cc1ccccc1)NC(=O)CCNC(=S)Nc1ccc(-c2c3ccc(=O)cc-3oc3cc(O)ccc23)c(C(=O)O)c1)C(=O)N[C@@H](CCCC[N+](C)(C)C)C(=O)N[C@@H](CO)C(N)=O ({X1-βAla}-FAL[Lys(Me3)]S-NH2)

>  <Kd (µM)>
4.5

$$$$
>  <COMPOUND>
C[C@H](NC(=O)[C@H](Cc1ccccc1)NC(=O)c1ccc(Br)cc1)C(=O)N[C@@H](Cc1ccc(O)cc1)C(=O)N[C@@H](CCCC[N+](C)(C)C)C(=O)N[C@@H](CO)C(=O)N[C@@H](CCC(=O)O)C(=O)N[C@@H](CCCCNC(=S)Nc1ccc(-c2c3ccc(=O)cc-3oc3cc(O)ccc23)c(C(=O)O)c1)C(N)=O ({Benzoyl(4-Br)}-FAY[Lys(Me3)]SEK(X1)-NH2)

>  <Kd (µM)>
0.624

$$$$
>  <COMPOUND>
CC(C)C[C@H](NC(=O)[C@H](CO)NC(=O)[C@H](CCCC[N+](C)(C)C)NC(=O)[C@H](Cc1ccc(O)cc1)NC(=O)[C@H](C)NC(=O)[C@H](Cc1ccccc1)NC(=O)c1ccc(Br)cc1)C(=O)N[C@@H](CCCCNC(=S)Nc1ccc(-c2c3ccc(=O)cc-3oc3cc(O)ccc23)c(C(=O)O)c1)C(N)=O ({Benzoyl(4-Br)}-FAY[Lys(Me3)]SLK(X1)-NH2)

>  <Kd (µM)>
0.89

$$$$

Assign Kd to the following record: CC[C@H](NC(=O)[C@H](Cc1ccccc1)NC(=O)c1ccc(Br)cc1)C(=O)N[C@H](C(=O)N[C@@H](CCCC[N+](C)(C)C)C(=O)N[C@@H](CO)C(=O)N[C@@H](CCC(=O)O)C(=O)N[C@@H](CCCCNC(=S)Nc1ccc(-c2c3ccc(=O)cc-3oc3cc(O)ccc23)c(C(=O)O)c1)C(N)=O)C1CCCC1 ({Benzoyl(4-Br)}-F[Abu][Gly(cPent)][Lys(Me3)]SEK(X1)-NH2)
0.12

Specify measured Kd for CC(C)C[C@H](NC(=O)[C@H](C)NC(=O)[C@H](Cc1ccccc1)NC(=O)[C@H](Cc1ccccc1)NC(=O)CCNC(=S)Nc1ccc(-c2c3ccc(=O)cc-3oc3cc(O)ccc23)c(C(=O)O)c1)C(=O)N[C@@H](CCCC[N+](C)(C)C)C(=O)N[C@@H](CO)C(N)=O ({X1-βAla}-FFAL[Lys(Me3)]S-NH2) .
1.7

Hello, please tell me recorded Kd for this one: CC[C@H](NC(=O)[C@H](Cc1ccccc1)NC(=O)c1ccc(Br)cc1)C(=O)N[C@@H](Cc1ccccc1)C(=O)N[C@@H](CCCC[N+](C)(C)C)C(=O)N[C@@H](CO)C(=O)N[C@@H](CCC(=O)O)C(=O)N[C@@H](CCCCNC(=S)Nc1ccc(-c2c3ccc(=O)cc-3oc3cc(O)ccc23)c(C(=O)O)c1)C(N)=O ({Benzoyl(4-Br)}-F[Abu]F[Lys(Me3)]SEK(X1)-NH2)
0.96
